- Tested on: T1, human nerve growth factor (human, UniProt P01138 122-241)
- T1 construct: Immobilised on CM5 chips for BIAcore, soluble in neuron survival assays; also called human NGF; hNGF
- T1 sequence (P01138 122-241 limits assumed): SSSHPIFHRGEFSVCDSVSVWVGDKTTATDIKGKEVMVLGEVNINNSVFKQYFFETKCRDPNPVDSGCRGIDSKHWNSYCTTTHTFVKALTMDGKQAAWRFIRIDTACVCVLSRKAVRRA
- Protocol description: BIAcore SPR screen, Fab over immobilised human NGF
Each item that follows carries a reported koff.
Give just the numeric value; s⁻¹ need not be written.

{"Binder": "light chain library clone L208 (Fab, V domains shown, See note of m8) VH: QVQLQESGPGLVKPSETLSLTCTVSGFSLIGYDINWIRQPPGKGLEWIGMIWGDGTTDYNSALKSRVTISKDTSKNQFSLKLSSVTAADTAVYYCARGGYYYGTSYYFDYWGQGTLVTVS VL: DIQMTQSPSSLSASVGDRVTITCRASQYISNHLNWYQQKPGKAPKLLIYYTSRFHSGVPSRFSGSGSGTDFTFTISSLQPEDIATYYCQQSKTLPYTFGQGTKLEIKR", "koff, s⁻¹": 0.00046}
{"Binder": "heavy chain library clone H227 (Fab, V domains shown, See note of m8) VH: QVQLQESGPGLVKPSETLSLTCTVSGFSLIGYDISWIRQPPGKGLEWIGQIWGDGTTDYNSSVKSRVTISKDTSKNQFSLKLSSVTAADTAVYYCARGGYYYGTSYYFDYWGQGTLVTVS VL: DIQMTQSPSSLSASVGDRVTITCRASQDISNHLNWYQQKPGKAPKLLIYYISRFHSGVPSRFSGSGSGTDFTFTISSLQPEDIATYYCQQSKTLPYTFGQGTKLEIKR", "koff, s⁻¹": 0.00054}
{"Binder": "heavy chain library clone H18 (Fab, V domains shown, See note of m8) VH: QVQLQESGPGLVKPSETLSLTCTVSGFSLIGYDATWIRQPPGKGLEWIGGIWGDGTTDYNSAVKSRVTISKDTSKNQFSLKLSSVTAADTAVYYCARGGYYYGTSYYFDYWGQGTLVTVS VL: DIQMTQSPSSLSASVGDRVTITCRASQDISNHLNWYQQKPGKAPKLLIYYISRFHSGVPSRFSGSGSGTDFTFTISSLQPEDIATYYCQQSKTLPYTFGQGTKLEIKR", "koff, s⁻¹": 0.00042}
{"Binder": "heavy chain library clone H225 (Fab, V domains shown, See note of m8) VH: QVQLQESGPGLVKPSETLSLTCTVSGFSLIGYDVTWIRQPPGKGLEWIGGIWGDGTTDYNSSVKSRVTISKDTSKNQFSLKLSSVTAADTAVYYCARGGYYYGTSYYFDYWGQGTLVTVS VL: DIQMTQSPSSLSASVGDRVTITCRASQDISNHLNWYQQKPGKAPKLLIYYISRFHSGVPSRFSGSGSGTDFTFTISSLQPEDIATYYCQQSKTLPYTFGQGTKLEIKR", "koff, s⁻¹": 0.00038}

Problem: For the binder shown here, heavy chain library clone H9 (Fab, V domains shown, See note of m8) VH: QVQLQESGPGLVKPSETLSLTCTVSGFSLIGYDVSWIRQPPGKGLEWIGIIWGDGTTDYNSSVKSRVTISKDTSKNQFSLKLSSVTAADTAVYYCARGGYYYGTSYYFDYWGQGTLVTVS VL: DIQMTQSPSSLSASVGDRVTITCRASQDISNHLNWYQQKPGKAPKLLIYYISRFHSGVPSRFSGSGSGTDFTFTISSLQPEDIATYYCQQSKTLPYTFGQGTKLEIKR , give the reported koff.
Result: 0.00041

Problem: For the binder shown here, light chain library clone L81 (Fab, V domains shown, See note of m8) VH: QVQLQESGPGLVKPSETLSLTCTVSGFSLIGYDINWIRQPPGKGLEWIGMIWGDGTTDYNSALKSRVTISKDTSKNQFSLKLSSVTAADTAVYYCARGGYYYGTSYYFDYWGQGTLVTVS VL: DIQMTQSPSSLSASVGDRVTITCRAFQAISNQLNWYQQKPGKAPKLLIYYISRFHTGVPSRFSGSGSGTDFTFTISSLQPEDIATYYCQQSKTLPYTFGQGTKLEIKR , give the reported koff.
Result: 0.00074

Problem: For the binder shown here, heavy chain library clone H19 (Fab, V domains shown, See note of m8) VH: QVQLQESGPGLVKPSETLSLTCTVSGFSLIGYDLNWIRQPPGKGLEWIGIIWGDGTTDYNSAVKSRVTISKDTSKNQFSLKLSSVTAADTAVYYCARGGYYYGTSYYFDYWGQGTLVTVS VL: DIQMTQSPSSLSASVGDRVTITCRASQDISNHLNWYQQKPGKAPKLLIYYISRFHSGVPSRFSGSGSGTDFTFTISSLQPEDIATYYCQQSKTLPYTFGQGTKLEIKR , give the reported koff.
Result: 0.00024
